Hi! I'm sharing some IC50 results obtained with Angiopoietin-1 receptor (Homo sapiens, UniProt Q02763).
Sequence (Q02763 whole entry): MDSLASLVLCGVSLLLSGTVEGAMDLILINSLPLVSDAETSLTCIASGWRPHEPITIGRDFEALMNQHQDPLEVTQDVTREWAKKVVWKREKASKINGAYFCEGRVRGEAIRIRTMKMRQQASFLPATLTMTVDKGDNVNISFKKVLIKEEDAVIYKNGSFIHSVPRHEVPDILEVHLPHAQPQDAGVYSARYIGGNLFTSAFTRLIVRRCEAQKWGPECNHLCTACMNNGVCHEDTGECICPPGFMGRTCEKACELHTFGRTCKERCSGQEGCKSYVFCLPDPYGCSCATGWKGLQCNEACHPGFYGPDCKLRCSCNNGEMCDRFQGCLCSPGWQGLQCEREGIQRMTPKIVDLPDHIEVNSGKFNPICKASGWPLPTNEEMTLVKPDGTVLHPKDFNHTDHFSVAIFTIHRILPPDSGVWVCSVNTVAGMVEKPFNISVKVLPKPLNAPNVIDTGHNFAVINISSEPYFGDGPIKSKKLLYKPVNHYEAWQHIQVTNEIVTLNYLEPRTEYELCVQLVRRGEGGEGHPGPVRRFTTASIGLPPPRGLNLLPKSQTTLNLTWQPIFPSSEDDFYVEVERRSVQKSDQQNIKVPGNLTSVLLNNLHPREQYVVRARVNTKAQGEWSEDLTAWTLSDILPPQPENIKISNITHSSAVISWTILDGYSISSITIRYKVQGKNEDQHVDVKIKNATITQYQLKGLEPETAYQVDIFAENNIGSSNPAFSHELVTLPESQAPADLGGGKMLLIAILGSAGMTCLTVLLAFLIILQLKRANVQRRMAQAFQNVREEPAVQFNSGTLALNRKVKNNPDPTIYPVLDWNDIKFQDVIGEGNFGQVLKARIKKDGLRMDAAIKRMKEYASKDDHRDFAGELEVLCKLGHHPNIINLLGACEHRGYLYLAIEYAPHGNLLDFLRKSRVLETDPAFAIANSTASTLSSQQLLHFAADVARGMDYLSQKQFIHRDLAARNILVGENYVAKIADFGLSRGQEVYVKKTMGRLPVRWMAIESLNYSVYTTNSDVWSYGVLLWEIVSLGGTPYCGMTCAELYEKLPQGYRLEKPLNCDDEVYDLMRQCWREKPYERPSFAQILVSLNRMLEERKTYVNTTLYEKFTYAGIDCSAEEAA
Number in nM, nothing else.

// worked examples, IC50 included
>>> print(df.to_string())
                                   compound  valueunit  number
0  COc1ccc2cc(-c3nc(-c4ccc([S+](C)[O-])cc4C)[nH]c3-c3ccncc3)ccc2c1 (stereo not drawn)         nM      36
1  COc1ccc2cc(-c3nc(-c4ccccc4C(F)(F)F)[nH]c3-c3ccncc3)ccc2c1         nM     260
2  COc1ccc2cc(-c3[nH]c(-c4ccc(S(C)(=O)=O)cc4C)nc3-c3ccncc3)ccc2c1         nM      40

Lookup: IC50 of COc1ccc2cc(-c3[nH]c(-c4ccc([S+](C)[O-])cc4Cl)nc3-c3ccncc3)ccc2c1 (stereo not drawn) on Angiopoietin-1 receptor (Homo sapiens, UniProt Q02763)?
Found: 51

Lookup: IC50 of COc1ccc2cc(-c3[nH]c(-c4ccc(SC)cc4Cl)nc3-c3ccncc3)ccc2c1 on Angiopoietin-1 receptor (Homo sapiens, UniProt Q02763)?
Found: 1500

Lookup: IC50 of COc1ccc2cc(-c3nc(-c4ccccc4C(C)C)[nH]c3-c3ccncc3)ccc2c1 on Angiopoietin-1 receptor (Homo sapiens, UniProt Q02763)?
Found: 836

Lookup: IC50 of COc1ccc2cc(-c3c(-c4ccncc4)nc(-c4ccc([S+](C)[O-])cc4C)n3C)ccc2c1 (stereo not drawn) on Angiopoietin-1 receptor (Homo sapiens, UniProt Q02763)?
Found: 12

Lookup: IC50 of COc1ccc2cc(-c3[nH]c(-c4c(Cl)cccc4Cl)nc3-c3ccncc3)ccc2c1 on Angiopoietin-1 receptor (Homo sapiens, UniProt Q02763)?
Found: 78

---

Target: UniProt:P36897
Sequence (P36897 whole entry): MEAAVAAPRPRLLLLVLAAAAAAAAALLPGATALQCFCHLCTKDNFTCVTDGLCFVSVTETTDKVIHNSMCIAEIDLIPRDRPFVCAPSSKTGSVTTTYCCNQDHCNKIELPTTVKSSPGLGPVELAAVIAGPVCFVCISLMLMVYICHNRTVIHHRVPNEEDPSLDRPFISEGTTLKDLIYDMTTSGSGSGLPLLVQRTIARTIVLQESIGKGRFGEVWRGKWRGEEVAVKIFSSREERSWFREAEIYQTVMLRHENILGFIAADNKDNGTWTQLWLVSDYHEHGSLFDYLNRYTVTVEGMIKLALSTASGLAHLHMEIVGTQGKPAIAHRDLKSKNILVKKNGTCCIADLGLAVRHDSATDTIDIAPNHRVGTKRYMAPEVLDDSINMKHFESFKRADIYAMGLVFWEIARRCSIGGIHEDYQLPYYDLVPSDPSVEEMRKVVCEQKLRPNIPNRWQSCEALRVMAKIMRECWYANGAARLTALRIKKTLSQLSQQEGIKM
reportedProperty: pIC50
Value format note: pIC50 is -log10 of concentration (mol/L); just state the number.

Lookup: pIC50 of COc1ccc2cc(-c3c(-c4ccncc4)nc(-c4ccc([S+](C)[O-])cc4C)n3C)ccc2c1 (stereo unspecified) on UniProt:P36897?
Found: 6.53

---

Molecular target: Tyrosine-protein kinase ABL1 (Homo sapiens)
Sequence (P00519 whole entry): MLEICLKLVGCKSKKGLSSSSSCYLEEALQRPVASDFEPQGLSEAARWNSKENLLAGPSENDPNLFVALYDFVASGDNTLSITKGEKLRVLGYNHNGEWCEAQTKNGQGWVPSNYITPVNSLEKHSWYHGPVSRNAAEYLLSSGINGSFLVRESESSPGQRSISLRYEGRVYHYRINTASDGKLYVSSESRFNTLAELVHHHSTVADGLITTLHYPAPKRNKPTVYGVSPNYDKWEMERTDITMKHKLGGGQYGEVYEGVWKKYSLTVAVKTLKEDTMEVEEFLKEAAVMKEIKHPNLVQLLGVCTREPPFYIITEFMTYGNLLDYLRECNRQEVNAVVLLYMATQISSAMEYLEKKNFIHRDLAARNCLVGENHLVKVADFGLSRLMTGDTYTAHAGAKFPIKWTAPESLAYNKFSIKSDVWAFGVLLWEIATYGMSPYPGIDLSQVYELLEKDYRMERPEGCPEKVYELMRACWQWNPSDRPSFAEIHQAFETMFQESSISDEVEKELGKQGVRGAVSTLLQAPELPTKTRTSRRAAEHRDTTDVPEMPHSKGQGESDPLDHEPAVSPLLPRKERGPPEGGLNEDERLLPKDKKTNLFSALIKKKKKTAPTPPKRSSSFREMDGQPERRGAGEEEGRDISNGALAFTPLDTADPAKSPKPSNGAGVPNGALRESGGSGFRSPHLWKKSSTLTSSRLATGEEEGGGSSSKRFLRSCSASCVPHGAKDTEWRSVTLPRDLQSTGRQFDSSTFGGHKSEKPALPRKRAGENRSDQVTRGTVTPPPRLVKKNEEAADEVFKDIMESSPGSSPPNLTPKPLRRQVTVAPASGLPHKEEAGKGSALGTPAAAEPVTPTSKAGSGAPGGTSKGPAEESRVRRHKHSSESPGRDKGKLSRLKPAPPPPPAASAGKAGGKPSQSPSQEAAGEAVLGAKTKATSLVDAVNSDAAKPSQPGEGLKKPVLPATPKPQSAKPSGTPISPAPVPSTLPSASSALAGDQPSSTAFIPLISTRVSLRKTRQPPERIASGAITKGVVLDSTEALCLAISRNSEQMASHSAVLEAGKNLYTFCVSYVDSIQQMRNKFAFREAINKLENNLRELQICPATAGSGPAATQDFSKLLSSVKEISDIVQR
pIC50: −log10 of the molar value.
reportedProperty: pIC50

Lookup: pIC50 of COc1ccc2cc(-c3c(-c4ccncc4)nc(-c4ccc([S+](C)[O-])cc4C)n3C)ccc2c1 (stereo unspecified) on Tyrosine-protein kinase ABL1 (Homo sapiens)?
Found: < 4.52
